- TGT: T1, 4H683-bA
- T1 chain: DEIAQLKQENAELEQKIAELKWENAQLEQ
- TEST: two-hybrid library CCNG1;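 further: natural log of median RNA to DNA barcode read ratio; higher means stronger binding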
REPORTED METRIC: interaction score

Please review the following examples before continuing.
| BINDER | interaction score |
| --- | --- |
| DKNQELEKKIEELKRENWELEKKIQELKR [4H3414-bH] | 0.0371 |
| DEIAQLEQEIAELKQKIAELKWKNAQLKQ [4H112-bA] | 0.303 |
| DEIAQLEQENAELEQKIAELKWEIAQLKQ [4H170-bA] | -0.581 |
| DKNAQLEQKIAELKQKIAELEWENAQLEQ [4H3427-bA] | -0.996 |

a. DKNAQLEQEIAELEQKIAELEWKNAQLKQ [4H3112-bA]
b. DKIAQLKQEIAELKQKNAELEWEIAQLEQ [4H2673-bA]
Q) Recorded interaction score values differ for a and b ; which one is higher? Pick one and reply with its label.
A) a
(a: -0.379, b: -0.575)
